Quick list: fold change per entry.
assay: esBAF inhibition via Bmi1 de-repression, confirmation, cell-based, RT-qPCR, mouse ESC, single point, cherry-pick (AID 743180); details: mouse ESC E14, Bmi1 mRNA qPCR fold; at 33 µM; stronger effect = higher value
The other results are listed elsewhere or left out. Activity calls are given as the source filed them.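 The calls were made as follows: active = Bmi1 expression fold change above 6 at either tested concentration, seen in replicate; inactive = the rest.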

molecule: COc1cc2ccccc2cc1C(=O)Nc1ccccc1C
fold change: 1.49 (inactive)
//
molecule: O=C(CCNC(=O)c1ccccc1)Nc1nc2ccccc2s1
fold change: 1.77 (inactive)
//
molecule: COc1ccc(Nc2ncnc3sc(C)cc23)cc1
fold change: 1.05 (inactive)
//
molecule: O=C(c1noc2c1CCCC2)N1CCc2ccccc2C1
fold change: 1.13 (inactive)
//
molecule: COc1ccc(/C=N/OCc2ccccc2C#N)c(OC)c1
fold change: 1.44 (inactive)
//
molecule: O=C(c1cc(-c2ccc(Cl)cc2)on1)N1CCN(c2ccccc2)CC1
fold change: 1.27 (inactive)
//
molecule: COc1cc2ccccc2cc1C(=O)Nc1ccncc1
fold change: 2.14 (inactive)
//
molecule: CC(Cc1cccs1)NC(=O)c1cccc(Cl)c1 (stereo not drawn)
fold change: 1.53 (inactive)

Query: Param item = C/C(=C\C(=O)c1cccnc1)Nc1ccc(C)c(C)c1 ; retrieve measured fold change.
Result: 1.59 (inactive)

Query: Endpoint output: fold change of COc1ccc(C(=O)CCc2ccccc2O)c(OC)c1 . Value?
Result: 1.13 (inactive)

Query: Item COc1ccc(Nc2ccc3ccccc3c2)cc1 has what recorded fold change?
Result: 2.11 (inactive)

Query: May I ask what fold change has been recorded for COc1ccc(CNC(=O)COc2ccccc2C(=O)c2cnn(-c3ccccc3)c2)cc1OC ?
Result: 1.57 (inactive)

Query: fold change for Clc1cccc(Cl)c1Cn1nnc(-c2cccs2)n1 ?
Result: 1.5 (inactive)

----------
target: Epidermal growth factor receptor (Homo sapiens) (UniProt P00533); experiment: EGFR binders on small-molecule microarrays, primary screen, biochemical, small-molecule microarray, 635 nm fluorescence (AID 1104); conditions: EGFR binding, higher = more signal;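 also: score merges 667 nm emission intensity with spot signal to noise over triplicate slides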
Sequence (P00533 whole entry, looked up): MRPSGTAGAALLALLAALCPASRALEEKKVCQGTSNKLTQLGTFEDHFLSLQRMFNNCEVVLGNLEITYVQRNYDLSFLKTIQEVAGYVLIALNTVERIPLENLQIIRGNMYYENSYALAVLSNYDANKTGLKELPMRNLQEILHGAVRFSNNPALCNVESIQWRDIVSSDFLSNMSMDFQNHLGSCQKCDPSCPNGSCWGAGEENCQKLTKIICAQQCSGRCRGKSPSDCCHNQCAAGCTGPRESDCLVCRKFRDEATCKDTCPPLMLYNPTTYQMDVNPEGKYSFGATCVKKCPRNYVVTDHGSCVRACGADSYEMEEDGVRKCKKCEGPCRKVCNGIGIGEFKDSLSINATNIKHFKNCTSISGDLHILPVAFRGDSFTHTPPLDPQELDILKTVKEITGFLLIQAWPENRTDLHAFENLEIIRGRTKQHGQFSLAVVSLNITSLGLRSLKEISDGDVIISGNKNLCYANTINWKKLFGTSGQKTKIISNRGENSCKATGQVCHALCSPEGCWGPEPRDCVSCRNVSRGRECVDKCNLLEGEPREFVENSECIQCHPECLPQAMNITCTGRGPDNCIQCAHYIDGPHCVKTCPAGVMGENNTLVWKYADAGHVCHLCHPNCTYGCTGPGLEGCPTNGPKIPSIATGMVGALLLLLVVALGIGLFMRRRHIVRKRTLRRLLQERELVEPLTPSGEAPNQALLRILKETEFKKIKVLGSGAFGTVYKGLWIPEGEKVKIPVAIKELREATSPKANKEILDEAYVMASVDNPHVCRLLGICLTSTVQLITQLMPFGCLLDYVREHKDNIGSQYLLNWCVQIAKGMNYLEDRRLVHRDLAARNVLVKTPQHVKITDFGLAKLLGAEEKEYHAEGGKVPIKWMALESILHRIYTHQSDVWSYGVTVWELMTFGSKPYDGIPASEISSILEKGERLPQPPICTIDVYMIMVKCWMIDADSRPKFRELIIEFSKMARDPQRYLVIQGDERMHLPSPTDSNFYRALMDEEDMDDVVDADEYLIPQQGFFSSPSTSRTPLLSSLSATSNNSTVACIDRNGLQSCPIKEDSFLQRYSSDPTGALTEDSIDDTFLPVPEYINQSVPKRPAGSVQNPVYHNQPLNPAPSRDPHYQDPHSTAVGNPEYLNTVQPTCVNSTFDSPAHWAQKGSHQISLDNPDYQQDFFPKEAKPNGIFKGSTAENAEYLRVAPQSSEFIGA
Threshold check on composite z-score: at or above 0.3 gives Condition met, strictly below gives Condition not met.

molecule: C#CCOc1ccc(C[C@H]2C(=O)O[C@H](Cc3ccccc3)[C@H](/C=C/C3CC3)N2CC#C)cc1
label: Condition not met
//
molecule: C=CCNC(=O)[C@@H]1[C@H]2C(=O)O[C@H](c3ccccc3)[C@H](c3ccccc3)N2[C@H](c2ccc(O)cc2)[C@@]12C(=O)Nc1ccc(C#Cc3ccc(OC)cc3)cc12
label: Condition met
//
molecule: COC(=O)C(CC#Cc1ccc2c(c1)[C@]1(C(=O)N2)[C@H](C(N)=O)[C@H]2C(=O)O[C@H](c3ccccc3)[C@H](c3ccccc3)N2[C@@H]1c1ccc(O)cc1)C(=O)OC
label: Condition not met
//
molecule: NCCCCCNC(=O)[C@H]1C[C@H]2C(=O)NCC(=O)N2[C@H]1c1ccc(O)cc1
label: Condition met

Query: # bool: composite z-score of C=CCC(OC(C)=O)[C@@H]1[C@@H](N(Cc2cccc3ccccc23)C(=O)c2cccc3ccccc23)c2cc(OCCCO)ccc2N1C(=O)Cc1ccc(OC)cc1 (some centres not stated) >= 0.3
Result: Condition not met

Query: composite z-score >= 0.3 for C=CCNC(=O)[C@@H]1[C@H]2C(=O)O[C@H](c3ccccc3)[C@H](c3ccccc3)N2[C@H](c2ccc(O)cc2)[C@@]12C(=O)Nc1ccccc12 ?
Result: Condition not met

Query: Hi team, for C=CCC(OC(C)=O)[C@@H]1[C@@H](N(Cc2ccc(-c3ccccc3)cc2)C(=O)c2ccc(-c3ccccc3)cc2)c2cc(OCCCO)ccc2N1C(=O)c1ccc(-c2ccccc2)cc1 (some centres not stated) , is the recorded composite z-score at or above 0.3?
Result: Condition not met
